test system: Haemophilus influenzae; experiment: Antibacterial activity against beta-lactamase nonproducing ampicillin susceptible Haemophilus influenzae isolate assessed as percent resistant isolates by broth microdilution method; format: functional
READOUT: Activity (%)

| COMPOUND | QUANTITATIVE READOUT |
| --- | --- |
| CC1(C)S[C@@H]2[C@H](NC(=O)[C@H](N)c3ccccc3)C(=O)N2[C@H]1C(=O)O | 1.6 |
| CO/N=C(\C(=O)N[C@@H]1C(=O)N2C(C(=O)O)=C(COC(N)=O)CS[C@H]12)c1ccco1 | 0 |
| N[C@@H](C(=O)N[C@@H]1C(=O)N2C(C(=O)O)=C(Cl)CS[C@H]12)c1ccccc1 [CEFACLOR ANHYDROUS] | 0 |
| C=CC1=C(C(=O)O)N2C(=O)[C@@H](NC(=O)/C(=N\OCC(=O)O)c3csc(N)n3)[C@H]2SC1 | 0 |
| CO/N=C(\C(=O)N[C@@H]1C(=O)N2C(C(=O)O)=C(COC(C)=O)CS[C@H]12)c1csc(N)n1 | 0 |

###

system: Haemophilus influenzae; test: Antibacterial activity against Haemophilus influenzae group IId isolates with ftsI gene mutation by broth microdilution method; format: functional
The following molecules are listed with their measured MIC50 values.

| MOLECULE | MIC50 |
| --- | --- |
| CO/N=C(\C(=O)N[C@@H]1C(=O)N2C(C(=O)O)=C(COC(N)=O)CS[C@H]12)c1ccco1 | 0.5 µg/mL |
| CC1(C)S[C@@H]2[C@H](NC(=O)[C@H](N)c3ccccc3)C(=O)N2[C@H]1C(=O)O | 0.5 µg/mL |
| CO/N=C(\C(=O)N[C@@H]1C(=O)N2C(C(=O)O)=C(COC(C)=O)CS[C@H]12)c1csc(N)n1 | 0.03 µg/mL |
| N[C@@H](C(=O)N[C@@H]1C(=O)N2C(C(=O)O)=C(Cl)CS[C@H]12)c1ccccc1 [CEFACLOR ANHYDROUS] | 2 µg/mL |
| C=CC1=C(C(=O)O)N2C(=O)[C@@H](NC(=O)/C(=N\OCC(=O)O)c3csc(N)n3)[C@H]2SC1 | 0.06 µg/mL |

###

system: Haemophilus influenzae; assay: Antibacterial activity against beta-lactamase positive ampicillin resistant Haemophilus influenzae isolate by broth microdilution method; type: functional
The following molecules are listed with their measured MIC90 values.

| MOLECULE | MIC90 (µg/mL) |
| --- | --- |
| N[C@@H](C(=O)N[C@@H]1C(=O)N2C(C(=O)O)=C(Cl)CS[C@H]12)c1ccccc1 [CEFACLOR ANHYDROUS] | 8 |
| C=CC1=C(C(=O)O)N2C(=O)[C@@H](NC(=O)/C(=N\OCC(=O)O)c3csc(N)n3)[C@H]2SC1 | 0.06 |
| CO/N=C(\C(=O)N[C@@H]1C(=O)N2C(C(=O)O)=C(COC(N)=O)CS[C@H]12)c1ccco1 | 1 |
| CO/N=C(\C(=O)N[C@@H]1C(=O)N2C(C(=O)O)=C(COC(C)=O)CS[C@H]12)c1csc(N)n1 | 0.06 |

###

tested on: Haemophilus influenzae; experiment: Antibacterial activity against beta-lactamase nonproducing ampicillin resistant Haemophilus influenzae isolate assessed as percent resistant isolates by broth microdilution method; type: functional
READOUT: Activity (%)

| COMPOUND | READOUT | OUTPUT UNIT | QUANTITATIVE READOUT |
| --- | --- | --- | --- |
| CO/N=C(\C(=O)N[C@@H]1C(=O)N2C(C(=O)O)=C(COC(C)=O)CS[C@H]12)c1csc(N)n1 | Activity | % | 1 |
| N[C@@H](C(=O)N[C@@H]1C(=O)N2C(C(=O)O)=C(Cl)CS[C@H]12)c1ccccc1 [CEFACLOR ANHYDROUS] | Activity | % | 12.1 |
| C=CC1=C(C(=O)O)N2C(=O)[C@@H](NC(=O)/C(=N\OCC(=O)O)c3csc(N)n3)[C@H]2SC1 | Activity | % | 1 |
| CC1(C)S[C@@H]2[C@H](NC(=O)[C@H](N)c3ccccc3)C(=O)N2[C@H]1C(=O)O | Activity | % | 50.8 |
| CO/N=C(\C(=O)N[C@@H]1C(=O)N2C(C(=O)O)=C(COC(N)=O)CS[C@H]12)c1ccco1 | Activity | % | 2 |

###

The following molecules are listed with their measured MIC90 values.
system: Haemophilus influenzae; assay: Antibacterial activity against Haemophilus influenzae group III-like isolates with ftsI gene mutation by broth microdilution method; assay type: functional
READOUT: MIC90 (µg/mL)

| SMILES STR | QUANTITATIVE READOUT |
| --- | --- |
| C=CC1=C(C(=O)O)N2C(=O)[C@@H](NC(=O)/C(=N\OCC(=O)O)c3csc(N)n3)[C@H]2SC1 | 4 |
| CO/N=C(\C(=O)N[C@@H]1C(=O)N2C(C(=O)O)=C(COC(N)=O)CS[C@H]12)c1ccco1 | 8 |
| CC1(C)S[C@@H]2[C@H](NC(=O)[C@H](N)c3ccccc3)C(=O)N2[C@H]1C(=O)O | 2 |
| CO/N=C(\C(=O)N[C@@H]1C(=O)N2C(C(=O)O)=C(COC(C)=O)CS[C@H]12)c1csc(N)n1 | 4 |

###

test system: Haemophilus influenzae; assay: Antibacterial activity against Haemophilus influenzae group IId isolates with ftsI gene mutation by broth microdilution method; format: functional
The following compounds are listed with their measured MIC90 values.

| COMPOUND | MIC90 |
| --- | --- |
| CO/N=C(\C(=O)N[C@@H]1C(=O)N2C(C(=O)O)=C(COC(N)=O)CS[C@H]12)c1ccco1 | 4 µg/mL |
| CO/N=C(\C(=O)N[C@@H]1C(=O)N2C(C(=O)O)=C(COC(C)=O)CS[C@H]12)c1csc(N)n1 | 0.12 µg/mL |
| N[C@@H](C(=O)N[C@@H]1C(=O)N2C(C(=O)O)=C(Cl)CS[C@H]12)c1ccccc1 [CEFACLOR ANHYDROUS] | 8 µg/mL |
| C=CC1=C(C(=O)O)N2C(=O)[C@@H](NC(=O)/C(=N\OCC(=O)O)c3csc(N)n3)[C@H]2SC1 | 0.12 µg/mL |
| CC1(C)S[C@@H]2[C@H](NC(=O)[C@H](N)c3ccccc3)C(=O)N2[C@H]1C(=O)O | 2 µg/mL |

###

The following compounds are listed with their measured MIC50 values.
tested on: Haemophilus influenzae; assay: Antibacterial activity against beta-lactamase producing amoxicillin-clavulanic acid-resistant Haemophilus influenzae isolate by broth microdilution method; assay type: functional
READOUT: MIC50 (µg/mL)

| COMPOUND | OUTPUT UNIT | COMPARATIVE SIGN | QUANTITATIVE READOUT |
| --- | --- | --- | --- |
| C=CC1=C(C(=O)O)N2C(=O)[C@@H](NC(=O)/C(=N\OCC(=O)O)c3csc(N)n3)[C@H]2SC1 [CEFIXIME] | µg/mL | = | 0.06 |
| CO/N=C(\C(=O)N[C@@H]1C(=O)N2C(C(=O)O)=C(COC(C)=O)CS[C@H]12)c1csc(N)n1 [CEFOTAXIME] | µg/mL | = | 0.03 |
| CC1(C)S[C@@H]2[C@H](NC(=O)[C@H](N)c3ccccc3)C(=O)N2[C@H]1C(=O)O [AMPICILLIN] | µg/mL | ≥ | 32 |
| N[C@@H](C(=O)N[C@@H]1C(=O)N2C(C(=O)O)=C(Cl)CS[C@H]12)c1ccccc1 [CEFACLOR ANHYDROUS] | µg/mL | = | 4 |
| CO/N=C(\C(=O)N[C@@H]1C(=O)N2C(C(=O)O)=C(COC(N)=O)CS[C@H]12)c1ccco1 [CEFUROXIME] | µg/mL | = | 1 |

###

The following compounds are listed with their measured MIC50 values.
tested on: Haemophilus influenzae; assay: Antibacterial activity against Haemophilus influenzae group III-like isolates with ftsI gene mutation by broth microdilution method; assay type: functional
READOUT: MIC50 (µg/mL)

| COMPOUND | READOUT | QUANTITATIVE READOUT |
| --- | --- | --- |
| N[C@@H](C(=O)N[C@@H]1C(=O)N2C(C(=O)O)=C(Cl)CS[C@H]12)c1ccccc1 [CEFACLOR ANHYDROUS] | MIC50 | 4 |
| C=CC1=C(C(=O)O)N2C(=O)[C@@H](NC(=O)/C(=N\OCC(=O)O)c3csc(N)n3)[C@H]2SC1 | MIC50 | 1 |
| CC1(C)S[C@@H]2[C@H](NC(=O)[C@H](N)c3ccccc3)C(=O)N2[C@H]1C(=O)O | MIC50 | 1 |
| CO/N=C(\C(=O)N[C@@H]1C(=O)N2C(C(=O)O)=C(COC(N)=O)CS[C@H]12)c1ccco1 | MIC50 | 4 |
| CO/N=C(\C(=O)N[C@@H]1C(=O)N2C(C(=O)O)=C(COC(C)=O)CS[C@H]12)c1csc(N)n1 | MIC50 | 0.5 |
